# Tested on: P. falciparum (NF54 strain, clone A149)
# Test summary: In vitro 3H-hypoxanthine incorporation test with P. falciparum NF 54
# Type: cell-based, Plasmodium falciparum
# Details: NF 54, clone A149; six repeats; max. concentration 50 or 5 μg/ml
# Lookup of reported IC50 P. falciparum NF54 strain keyed by entry
Use µg/mL as the unit, but write only the number.

**Query** Param readout = IC50 P. falciparum NF54 strain; param system = P. falciparum (NF54 strain, clone A149); param query = COc1cc2c(c(OC)c1-c1ccc(OC)c3c(OC)cc(C)cc13)[C@@H](C)N(C)[C@@H](C)C2 [Ancistrobrevine A] ; response: value
**Result** 19.336

**Query** Follow-up entry: COc1cccc2c(-c3ccc4c(c3O)C(C)N(C)C(C)C4)c(C)cc(OC)c12 (centres unmarked) [N-methyl-dioncophylline A]
**Result** 13.637

**Query** Follow-up entry: COc1cc(C)cc2ccc(-c3ccc4c(c3O)[C@@H](C)N[C@H](C)C4)c(O)c12 [Dioncophylline B]
**Result** 0.224

**Query** Follow-up entry: COc1c(C)nc(C)c2c(OC)c(-c3c(C)cc(OC)c4c(OC)cccc34)ccc12 [(±)-dioncophyllacine A]
**Result** 17.571

**Query** Follow-up entry: COc1cc(O)c(-c2c(C)cc(OC)c3c(OC)cccc23)c2c1[C@H](C)N[C@@H](C)C2 [Hamatine]
**Result** 3.338

----------
# System: P. falciparum (K1 strain)
# Test summary: In vitro 3H-hypoxanthine incorporation test with chloroquine-resistant P. falciparum K1
# Type: cell-based, Plasmodium falciparum
# Method: Selected compounds were also tested against drug-resistant parasites. The method was the same as above except for the following modifications. […] Testing was performed in vitro based upon the method of Desjardins, et al (supra, 1979), as modified by O'Neill, et al. (Planta Med., 51, 394-399, 1985) and Ekong, et al. (Biochem. Pharmacol., 40, 297-301, 1990). […] Radioactivity was measured by liquid scintillation counting in Ecoscint (National Diagnostics). […]
Please note: IC50 P. falciparum, K1 strain exactly at 6 µg/mL is f. Only values below 6 µg/mL get t.

COc1cccc2c(-c3ccc4c(c3O)[C@@H](C)N[C@H](C)C4)c(C)cc(OC)c12 [Dioncophylline A] = t
COc1cc(O)c(-c2c(C)cc(OC)c3c(OC)cccc23)c2c1[C@H](C)N[C@@H](C)C2 [Ancistrocladine] = f

**Query** Answer whether the molecule COc1cc(C)cc2ccc(-c3ccc4c(c3O)[C@@H](C)N[C@H](C)C4)c(O)c12 [Dioncophylline B] has IC50 P. falciparum, K1 strain strictly less than 6 µg/mL
**Result** t

**Query** Follow-up entry: COc1cccc2c(-c3ccc4c(c3O)C(C)N(C)C(C)C4)c(C)cc(OC)c12 (centres unmarked) [N-methyl-dioncophylline A]
**Result** t

**Query** Follow-up entry: COc1cc(CO)c(-c2ccc3c(c2O)[C@@H](C)N[C@H](C)C3)c2cccc(O)c12 [Dioncopeltine A]
**Result** t

----------
# Test system: P. falciparum (NF54 strain, clone A149)
# Test summary: In vitro 3H-hypoxanthine incorporation test with P. falciparum NF 54
# Assay type: cell-based, Plasmodium falciparum
# Details: NF 54, clone A149; six repeats; max. concentration 50 or 5 μg/ml
Assay endpoint: IC50 P. falciparum NF54 strain (µg/mL)
Use µg/mL as the unit, but write only the number.

COc1cc(CO)c(-c2ccc3c(c2O)[C@@H](C)N[C@H](C)C3)c2cccc(O)c12 = 0.021
COc1cc(C)c(-c2ccc(O)c3c2C[C@@H](C)N[C@@H]3C)c2cccc(O)c12 = 0.005
COc1cc(O)c(-c2c(C)cc(OC)c3c(OC)cccc23)c2c1[C@H](C)N[C@@H](C)C2 [Ancistrocladine] = 18.353

Next up:
**Query** Param readout = IC50 P. falciparum NF54 strain; param system = P. falciparum (NF54 strain, clone A149); param query = COc1cccc2c(-c3ccc4c(c3O)C(C)N(C)C(C)C4)c(C)cc(OC)c12 (single isomer, unassigned) [N-methyl-dioncophylline A (atropisomers)] ; response: value
**Result** 17.411
